system: Streptococcus pneumoniae; assay: Antibacterial activity against Streptococcus pneumoniae 31002 by CLSI agar microdilution method; format: functional
Examples of compounds with documented MIC follow.
Give just the numeric value; µg/mL need not be written.

Completed entries (count: 6):
| compound | unit_abbreviation | experimental_value |
| --- | --- | --- |
| CN[C@H](CC(C)C)C(=O)N[C@H]1C(=O)N[C@@H](CC(N)=O)C(=O)N[C@H]2C(=O)N[C@H]3C(=O)N[C@H](C(=O)N[C@@H](C(=O)O)c4cc(O)cc(O)c4-c4cc3ccc4O)[C@H](O[C@H]3C[C@](C)(N)[C@H](O)[C@H](C)O3)c3ccc(c(Cl)c3)Oc3cc2cc(c3O[C@@H]2O[C@H](CO)[C@@H](O)[C@H](O)[C@H]2O[C@H]2C[C@](C)(NCc3cccc4ccccc34)[C@H](O)[C@H](C)O2)Oc2ccc(cc2Cl)[C@H]1O | µg/mL | 0.78 |
| CCCCCCCCCCNCCN[C@@]1(C)C[C@H](O[C@H]2[C@H](Oc3c4cc5cc3Oc3ccc(cc3Cl)[C@@H](O[C@H]3C[C@](C)(N)[C@H](O)[C@H](C)O3)[C@@H]3NC(=O)[C@H](NC(=O)[C@@H]5NC(=O)[C@H](CC(N)=O)NC(=O)[C@H](NC(=O)[C@@H](CC(C)C)NC)[C@H](O)c5ccc(c(Cl)c5)O4)c4ccc(O)c(c4)-c4c(O)cc(O)cc4[C@H](C(=O)O)NC3=O)O[C@H](CO)[C@@H](O)[C@@H]2O)O[C@@H](C)[C@H]1O | µg/mL | 3.13 |
| CN[C@H](CC(C)C)C(=O)N[C@H]1C(=O)N[C@@H](CC(N)=O)C(=O)N[C@H]2C(=O)N[C@H]3C(=O)N[C@H](C(=O)N[C@H](C(=O)O)c4cc(O)cc(O)c4-c4cc3ccc4O)[C@H](O)c3ccc(c(Cl)c3)Oc3cc2cc(c3O[C@@H]2O[C@H](CO)[C@@H](O)[C@H](O)[C@H]2O[C@H]2C[C@](C)(N)[C@H](O)[C@H](C)O2)Oc2ccc(cc2Cl)[C@H]1O.Cl [VANCOMYCIN HYDROCHLORIDE] | µg/mL | 0.39 |
| CCCCCCCN[C@@]1(C)C[C@H](O[C@H]2[C@H](Oc3c4cc5cc3Oc3ccc(cc3Cl)[C@@H](O[C@H]3C[C@](C)(N)[C@H](O)[C@H](C)O3)[C@@H]3NC(=O)[C@H](NC(=O)[C@@H]5NC(=O)[C@H](CC(N)=O)NC(=O)[C@H](NC(=O)[C@@H](CC(C)C)NC)[C@H](O)c5ccc(c(Cl)c5)O4)c4ccc(O)c(c4)-c4c(O)cc(O)cc4[C@H](C(=O)O)NC3=O)O[C@H](CO)[C@@H](O)[C@@H]2O)O[C@@H](C)[C@H]1O | µg/mL | 0.78 |
| CN[C@H](CC(C)C)C(=O)N[C@H]1C(=O)N[C@@H](CC(N)=O)C(=O)N[C@H]2C(=O)N[C@H]3C(=O)N[C@H](C(=O)N[C@@H](C(=O)O)c4cc(O)cc(O)c4-c4cc3ccc4O)[C@H](O[C@H]3C[C@](C)(N)[C@H](O)[C@H](C)O3)c3ccc(c(Cl)c3)Oc3cc2cc(c3O[C@@H]2O[C@H](CO)[C@@H](O)[C@H](O)[C@H]2O[C@H]2C[C@](C)(NCc3ccc(Cl)cc3)[C@H](O)[C@H](C)O2)Oc2ccc(cc2Cl)[C@H]1O | µg/mL | 1.56 |
| CN[C@H](CC(C)C)C(=O)N[C@H]1C(=O)N[C@@H](CC(N)=O)C(=O)N[C@H]2C(=O)N[C@H]3C(=O)N[C@H](C(=O)N[C@@H](C(=O)O)c4cc(O)cc(O)c4-c4cc3ccc4O)[C@H](O[C@H]3C[C@](C)(N)[C@H](O)[C@H](C)O3)c3ccc(c(Cl)c3)Oc3cc2cc(c3O[C@@H]2O[C@H](CO)[C@@H](O)[C@H](O)[C@H]2O[C@H]2C[C@](C)(N)[C@H](O)[C@H](C)O2)Oc2ccc(cc2Cl)[C@H]1O | µg/mL | 0.098 |

// switching to the query compound
Prompt: Check the records and state MIC for `CN[C@H](CC(C)C)C(=O)N[C@H]1C(=O)N[C@@H](CC(N)=O)C(=O)N[C@H]2C(=O)N[C@H]3C(=O)N[C@H](C(=O)N[C@@H](C(=O)O)c4cc(O)cc(O)c4-c4cc3ccc4O)[C@H](O[C@H]3C[C@](C)(N)[C@H](O)[C@H](C)O3)c3ccc(c(Cl)c3)Oc3cc2cc(c3O[C@@H]2O[C@H](CO)[C@@H](O)[C@H](O)[C@H]2O[C@H]2C[C@](C)(NCc3cc(F)c(F)cc3F)[C@H](O)[C@H](C)O2)Oc2ccc(cc2Cl)[C@H]1O`
Response: 1.56
